// provenance: ChEMBL document CHEMBL5532656

tested on: Pseudomonas aeruginosa; experiment: Anti-biofilm activity against Pseudomonas aeruginosa PAO1 assessed as reduction in biofilm formation incubated for 24 hrs by crystal violet staning based analysis; assay type: functional, organism-based; conditions: PAO1, 24 h
measurement type: IC50 (µM)
Write the value in µM as a bare number.

Fill in the recorded IC50 for this molecule, with Pseudomonas aeruginosa as test system: CCCCC1(O)C2=C(C=CCC2)C(=O)N1Cc1ccc(C(F)(F)F)cc1 (stereo unspecified) 7.4

====

test: Inhibition of quorum sensing system in Pseudomonas aeruginosa PAO1 assessed as reduction in elastase level using BODIPY-FL-labeled DQ elastin conjugate as substrate measured after 24 hrs by fluorometric method
measurement type: pIC50
// field semantics: pIC50 = negative decimal log of concentration (mol/L)

Query: pIC50; subject: CCCCC1(O)C2=C(C=CCC2)C(=O)N1Cc1ccc(C(F)(F)F)cc1 (stereo unspecified) 5.14
